Where do the numbers come from? From patent US20240392003A1.

Reported koff values for the following binders.
# Measurement target: T1, recombinant human ROR1 protein (Fc-Tag, Acro Biosystems RO1-H5250) (human, UniProt Q01973 30-406)
# T1 construct: Bought; also called hROR1; recombinant human ROR1 ECD; not shown: Fc tag
# Procedure text: SPR; hROR1-Fc immobilized
Provide only the numeric value, understood in s⁻¹.

Worked cases, koff given:
{"columns": ["Binder", "Units label", "Measured number"],
 "data": [
  ["PRO2062 (scFv, V domains shown, scFv (Full graft); also called 55-39-G02-sc02) VH: QSQLVESGGGLVQPGGSLRLSCAVSGLSLSRNAMSWVRQAPGKGLEWIGIILTSGSTYYASWAKGRFTISKDNSKNTVYLQMNSLRAEDTAVYFCVRGIASSSLKSFWGQGTLVTVSS VL: AQQLTQSPSSLSASVGDRVTITCQASQNVWNNNYLSWFQQKPGKPPKLLIVTASTLASGVSSRFSGSGSGTDFTLTISSLQPEDFATYYCAGGFSGEIRAFGTGTKVTVLG", "s⁻¹", 0.00049],
  ["PRO2271 (scFv, V domains shown, scFv, T cell score optimized variant of PRO2062; also called 55-39-G02-sc03) VH: QSQLVESGGGLVQPGGSLRLSCAVSGIDLSRNAMSWVRQAPGKGLEWIGIILTSGSTYYASWAKGRFTISKTSTTLDLQMNSLRAEDTAVYFCVRGIASSSLKSFWGQGTLVTVSS VL: AQQLTQSPSSLSASVGDRVTITCQASQNVWNNNYLSWFQQKPGKPPKLLIVTASTLASGVSSRFSGSGSGTDFTLTISSLQPEDFATYYCAGGFSGEIRAFGTGTKVTVLG", "s⁻¹", 0.000578],
  ["PRO2292 (scFv, V domains shown, scFv, PRO2062 with VL-VH interdomain disulfide (AHo 141VL-51VH); also called 55-39-G02-sc05) VH: QSQLVESGGGLVQPGGSLRLSCAVSGLSLSRNAMSWVRQAPGKCLEWIGIILTSGSTYYASWAKGRFTISKDNSKNTVYLQMNSLRAEDTAVYFCVRGIASSSLKSFWGQGTLVTVSS VL: AQQLTQSPSSLSASVGDRVTITCQASQNVWNNNYLSWFQQKPGKPPKLLIVTASTLASGVSSRFSGSGSGTDFTLTISSLQPEDFATYYCAGGFSGEIRAFGCGTKVTVLG", "s⁻¹", 0.000616]
]}

We next turn to a different binder, shown below.
Report koff for PRO2291 (scFv, V domains shown, scFv, PRO2060 with VL-VH interdomain disulfide (AHo 141VL-51VH); also called 55-38-D07-sc06) VH: QSQVVESGGGLVQPGGSLRLSCAVSGFDLSSYAVSWVRQAPGKCLEWIGIIYPRANTYYASWAKGRFTISKDNSKNTVYLQMNSLRAEDTAVYFCARDRYDSGAYLYTTYFNLWGQGTLVTVSS VL: DVQMTQSPSSLSASVGDRVTITCRASENIYSGLAWYQQKPGKPPKLLIYRASTLASGVSSRFSGSGSGTDFTLTISSLQPEDFATYYCQGGYYSSSSTYIAFGCGTKVTVLG please. 0.000302
